Tested on: 415267-285-R-J2-PDC complex spheroid viability
Test: Anticancer human tumor 415267-285-R-J2-PDC patient-derived breast carcinoma cell line growth inhibition [POLQ]
Conditions: second compound 3.16 µM; first compound 3.16 µM; hits give low values
Give viability, T/C for every item shown.
Numbers only, in %.

Quick batch: viability, T/C for everything below.
1. CC(C)n1c(=O)n(C)c2cnc3cc(F)c(-c4ccc(OCCCN5CCCCC5)nc4)cc3c21 + Cc1cccc(N(C)C(=O)C2C(O)CCN2c2nc(C)cc(C(F)(F)F)c2C#N)c1
2. CC1COCCN1c1cc(-c2ccnn2C)c2ccnc(-c3ccn[nH]3)c2n1 (stereo not given) + Nc1ccc(C#CCN(C(=O)Cc2ncc(C(F)(F)F)cc2C(F)(F)F)c2ccc(F)cc2)nn1

Result:
1. 87.5
2. 3.4

---

Give viability, T/C for every item shown.
Test system: 415267-285-R-J2-PDC complex spheroid viability
Test: Anticancer human tumor 415267-285-R-J2-PDC cell line growth inhibition [POLQ];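 further: luminescence used as stand-in measure of viable cells; spheroids exposed to compounds for one week before readout; 100% = DMSO vehicle control viability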
Conditions: second compound 0.316 µM; first compound 0.0316 µM; hits give low values

See these solved cases before continuing.
- COMPOUND: "CC1COCCN1c1cc(-c2ccnn2C)c2ccnc(-c3ccn[nH]3)c2n1 (stereo unspecified) + Nc1ccc(C#CCN(C(=O)Cc2ncc(C(F)(F)F)cc2C(F)(F)F)c2ccc(F)cc2)nn1"
  TGT: "415267-285-R-J2-PDC complex spheroid viability"
  viability, T/C: "60%"
- COMPOUND: "O=C(Nc1ccc(O)c(NS(=O)(=O)c2ccc(F)cc2)c1)c1ccc(-c2ccccc2)cc1 + Cc1cccc(N(C)C(=O)C2C(O)CCN2c2nc(C)cc(C(F)(F)F)c2C#N)c1"
  TGT: "415267-285-R-J2-PDC complex spheroid viability"
  viability, T/C: "109%"
- COMPOUND: "Nc1ccn(C2OC(CO)C(O)C2(F)F)c(=O)n1 (stereo unspecified) + COC1C(OC(N)=O)C(O)C(Oc2ccc3c(O)c(NC(=O)c4ccc(O)c(CC=C(C)C)c4)c(=O)oc3c2C)OC1(C)C"
  TGT: "415267-285-R-J2-PDC complex spheroid viability"
  viability, T/C: "6.64%"
- COMPOUND: "Nc1ccn(C2OC(CO)C(O)C2(F)F)c(=O)n1 (stereo unspecified) + Cc1cccc(N(C)C(=O)C2C(O)CCN2c2nc(C)cc(C(F)(F)F)c2C#N)c1"
  TGT: "415267-285-R-J2-PDC complex spheroid viability"
  viability, T/C: "8.5%"
- COMPOUND: "CC[C@@]1(O)C(=O)OCc2c1cc1n(c2=O)Cc2cc3c(CN(C)C)c(O)ccc3nc2-1 + Cc1cccc(N(C)C(=O)C2C(O)CCN2c2nc(C)cc(C(F)(F)F)c2C#N)c1"
  TGT: "415267-285-R-J2-PDC complex spheroid viability"
  viability, T/C: "19.2%"
- COMPOUND: "COc1cccc2c1C(=O)c1c(O)c3c(c(O)c1C2=O)CC(O)(C(=O)CO)CC3OC1CC(N)C(O)C(C)O1 (stereo unspecified) + Cc1cccc(N(C)C(=O)C2C(O)CCN2c2nc(C)cc(C(F)(F)F)c2C#N)c1"
  TGT: "415267-285-R-J2-PDC complex spheroid viability"
  viability, T/C: "36.5%"

Quick batch: viability, T/C for everything below.
1. CC1COCCN1c1cc(-c2ccnn2C)c2ccnc(-c3ccn[nH]3)c2n1 (stereo unspecified) + COC1C(OC(N)=O)C(O)C(Oc2ccc3c(O)c(NC(=O)c4ccc(O)c(CC=C(C)C)c4)c(=O)oc3c2C)OC1(C)C
2. O=C(c1cc(Cc2n[nH]c(=O)c3ccccc23)ccc1F)N1CCN(C(=O)C2CC2)CC1 + Cc1cccc(N(C)C(=O)C2C(O)CCN2c2nc(C)cc(C(F)(F)F)c2C#N)c1
3. CCc1c2c(nc3ccc(O)cc13)-c1cc3c(c(=O)n1C2)COC(=O)[C@]3(O)CC + COC1C(OC(N)=O)C(O)C(Oc2ccc3c(O)c(NC(=O)c4ccc(O)c(CC=C(C)C)c4)c(=O)oc3c2C)OC1(C)C
4. C=CCn1c(=O)c2cnc(Nc3ccc(N4CCN(C)CC4)cc3)nc2n1-c1cccc(C(C)(C)O)n1 + COC1C(OC(N)=O)C(O)C(Oc2ccc3c(O)c(NC(=O)c4ccc(O)c(CC=C(C)C)c4)c(=O)oc3c2C)OC1(C)C
5. O=c1[nH]cc(F)c(=O)[nH]1 + COC1C(OC(N)=O)C(O)C(Oc2ccc3c(O)c(NC(=O)c4ccc(O)c(CC=C(C)C)c4)c(=O)oc3c2C)OC1(C)C
6. C#Cc1c(F)ccc2cc(O)cc(-c3ncc4c(N5CC6CCC(C5)N6)nc(OCC56CCCN5CC(F)C6)nc4c3F)c12 (stereo unspecified) + COC1C(OC(N)=O)C(O)C(Oc2ccc3c(O)c(NC(=O)c4ccc(O)c(CC=C(C)C)c4)c(=O)oc3c2C)OC1(C)C

Result:
48.4%
95.3%
9.37%
100%
97.7%
97.7%
